Test system: ACHN renal
Test: NCI-60 one-dose screen, 48 h (100 = growth as untreated, 0 = no growth, -100 = all killed)
Conditions: 10 µM unless noted
This is part of a sample that, as a whole, favours compounds with a hit. Of some 83,000 tested, about 20% had one in any assay.
Classification field: Satisfied = growth at or over 80%; Not satisfied = growth under 80%.

| COMPOUND | CLASS_LABEL |
| --- | --- |
| CC1=C(C(=O)n2c3ccccc3c3ccccc32)C(c2cccc([N+](=O)[O-])c2)C(C(=O)n2c3ccccc3c3ccccc32)=C(C)N1 | Satisfied |
| CCOC(=O)N1CCN(S(=O)(=O)c2oc(-c3ccc(Cl)cc3)nc2C#N)CC1 | Not satisfied |
| NC(=O)OCCn1cc(-c2nc(-c3c[nH]c4ncccc34)cs2)c2ccccc21 | Not satisfied |
| Cc1[nH]c(/C=C/C(=O)c2ccc(C(F)(F)F)c(F)c2)c(C)c1C(=O)NCC(C)C | Satisfied |
| O=C(CSc1nc2ccc([N+](=O)[O-])cc2[nH]1)Nc1cccc([N+](=O)[O-])c1 | Not satisfied |
| COc1ccc2c(c1)c(-c1nonc1-c1c[nH]c3ccc(Br)cc13)cn2C | Not satisfied |
| CCCCN1C(=O)/C(=c2\sc3n(c2=O)NC2C(N=3)N(CC)C(=O)N2CC)c2ccccc21 (centres undefined) | Not satisfied |
| FC(F)(F)c1[nH]ncc1-c1nc2c(N3CCCCC3)cc3[nH]ncc3c2c2c1CCCC2 | Not satisfied |
| CN(C)c1ccc(-c2cc(-c3ccc(Nc4nc(Nc5ccc(Cl)cc5)nc(Nc5ccc(Cl)cc5)n4)cc3)nc(N)c2C#N)cc1 | Satisfied |
| O=C(Nc1cccc(NC(=O)C2CCCCC2)c1)c1ccccn1 | Satisfied |
| N=C(N)c1ccc(-c2ccc(-c3ccc(F)cc3)s2)s1 | Not satisfied |
| COc1ccc(C/C(C)=C(\c2ccc(O)cc2)c2ccc(OCCN3CCCC3)cc2)cc1 | Satisfied |
| COc1cc(-c2cc(-c3ccc(Nc4ncnc5cc(Cl)ccc45)cc3)nc(N3CCN(C)CC3)n2)cc(OC)c1OC | Not satisfied |
| COc1ccc(NC(=O)c2ccc(C(=O)Nc3ccc(OC)cc3OC)cc2)c(OC)c1 | Not satisfied |
| COc1ccc(C(c2cc(OC)c(OC)c(OC)c2)N2CCN(Cc3ccccc3)CC2)cc1 (centres undefined) | Satisfied |
| Cc1nn(-c2ccccc2)c(N2CCCCC2)c1/C=N/NC(=O)Cn1c(=O)sc2ccccc21 | Not satisfied |
| COc1cc(C(=O)/C=C/c2ccc(N3CCN(C)CC3)cc2)cc(OC)c1OC | Satisfied |
| N=c1sc(Cc2cc(Cl)ccc2Cl)cn1CC(=O)c1ccccc1 | Not satisfied |
| CN1CCN(CCCOc2ccc3ncnc(Nc4ccc(Oc5cccc(F)c5)c(Cl)c4)c3c2)CC1 | Not satisfied |
| COc1ccc2nc(Cl)c(/C=C/C(=O)c3ccc(NC(=O)CSc4nnc(-c5ccc(Cl)c(Cl)c5)n4-c4ccccc4)cc3)cc2c1 | Satisfied |
| CCN1CCN(CC(=O)Nc2nc3ccc(NCc4ccc(Br)cc4)cc3s2)CC1 | Not satisfied |
| COc1cc(C(=O)C(=O)c2cc(OC)c(O)c(OC)c2)cc(OC)c1O | Satisfied |
| COc1ccc(NC(=O)c2sc3nc4c(cc3c2N)CCCC4)cc1 | Not satisfied |
| O=C(NCc1ccccc1O)c1cccc2ccccc12 | Not satisfied |
| CN(C)c1ccc(C(=NO)c2ccc(N(C)C)cc2)cc1 | Not satisfied |
| CCn1cc(C2=C(c3cn(C)c4ncccc34)C(=O)NC2=O)c2cccnc21 | Not satisfied |
| CCCCCCCCn1ccc2cc(NC(=O)Cn3cc(CN4CCCCCC4)nn3)ccc21 | Not satisfied |
| O=C1OCC2=C1C(c1cccc(F)c1)c1cc3c(cc1N2CCO)OCO3 (centres undefined) | Not satisfied |
| O=C1Nc2ccc(F)cc2/C1=C\c1nc(-c2ccccc2F)n2ccccc12 | Not satisfied |
| Cc1c(N2CN3C[C@H](C)N4CN(c5c(C)n(C)n(-c6ccccc6)c5=O)CN5C[C@@H](C)N(C2)C3C54)c(=O)n(-c2ccccc2)n1C (some centres undefined) | Satisfied |
| CN1C(=O)/C(=C/c2ccc(C(=O)Nc3ncc(Cc4ccc(F)cc4)s3)cc2)SC1=S | Not satisfied |
| O=C1/C(=C/c2ccc(C(F)(F)F)cc2)COc2ccc(O)c(O)c21 | Not satisfied |
| O=C(c1ccc(Cl)cc1Cl)N1c2ccccc2Sc2ccccc21 | Not satisfied |
| COc1ccc2c(O)c(/C=C3\N=Nc4ccccc43)oc2c1C[C@H]1CCNC[C@H]1F | Not satisfied |
| CCOC(=O)c1cn2ncnc(Oc3ccc(NC(=O)NC4CC4)c(F)c3)c2c1C | Satisfied |

---

Test system: MDA-MB-435 melanoma
Assay: NCI-60 one-dose screen, 48 h
Conditions: 10 µM unless noted
This is part of a sample that, as a whole, favours compounds with a hit. Of some 83,000 tested, about 20% had one in any assay. The source made the active and inactive calls. How the source made its calls: active means growth percent below 10; inactive means the rest.
Possible outcomes: active, inactive

| MOLECULE | CLASS_LABEL |
| --- | --- |
| Cc1c2ccccc2nc2c1ccc1cccnc12 | inactive |
| CCOC(=O)CSc1nc2sc3c(c2c(=O)n1-c1ccc([N+](=O)[O-])cc1)CCCCC3 | inactive |
| NC(=O)c1ccc(NC(=O)c2oc3ccccc3c2-c2cnn(-c3ccccc3)c2)cc1 | inactive |
| CCCCCSB(SCCCCC)c1ccccc1 | inactive |
| CCN(CC)c1ccc(/C=C\c2cc(C)c3cc(C)ccc3n2)cc1 | active |
| O=C1/C(=C/c2ccccc2)CN(C(=O)c2cccnc2)C/C1=C\c1ccccc1 | active |
| C=CCn1c(SCC(=O)Nc2ccc(C(=O)/C=C/c3ccc(OC)cc3)cc2)nnc1-c1ccccc1 | inactive |
| CC(C)c1ccc(C(=O)Nc2sc3cc(O)ccc3c2C#N)cc1 | active |
| N=c1sc(Cc2cc(Cl)ccc2Cl)cn1CC(=O)c1ccccc1 | active |
| COc1ccc(C/C(C)=C(\c2ccc(O)cc2)c2ccc(OCCN3CCCC3)cc2)cc1 | inactive |
| Cn1c(O)c(C(/C=C/c2ccccc2)=Nc2ccccc2N)c(=O)n(C)c1=O | inactive |
| Cn1cc(-c2nonc2-c2c[nH]c3ccccc23)c2ccccc21 | active |
| O=C(O)C1CN(c2cccc(Cl)c2)N(c2cccc(Cl)c2)C1=O (stereo not given) | inactive |
| CCOC(=O)c1n[nH]n2c1nc(=O)c1cnn(C)c12 | inactive |
| COc1cc2c3c(n(CCCCNCCCn4c5c(c6cc(OC)c(OC)cc6c4=O)C(=O)c4cc6c(cc4-5)OCO6)c(=O)c2cc1OC)-c1cc2c(cc1C3=O)OCO2 | inactive |
| COc1cc(C2=NN(C(C)=O)C(c3ccc(N(C)C)cc3)C2)cc(OC)c1OC (stereo not given) | inactive |
| COC(=O)/C(CCC=C(C)C)=C1\[C@@H](OC(C)=O)C[C@@]2(C)[C@H]1CC(=O)[C@H]1[C@@]3(C)CCC(N4CCCC4)[C@@H](C)[C@@H]3CC[C@@]12C (stereo not given in full) | inactive |
| CCOC(=O)c1c(NC(=O)c2ccc(C(C)(C)C)cc2)sc2cc(O)ccc12 | inactive |
| C(/C=C/c1ccccc1)=Nc1ccc(CCc2ccc(N=C/C=C/c3ccccc3)cc2)cc1 | inactive |
| O=C(Cn1cc(CN2C(=O)c3ccccc3S2(=O)=O)nn1)Nc1cccc(Cl)c1 | inactive |

---

Each item that follows carries a reported growth.
System: MCF7 breast
Experiment: NCI-60 one-dose screen, 48 h (100 = growth as untreated, 0 = no growth, -100 = all killed)
Conditions: 10 µM unless noted
About 83,000 compounds went through this panel and 20% of them were active in at least one assay; those are over-represented in the sample as a whole.

| SUBSTANCE_SMILES | growth [%] |
| --- | --- |
| O=C1NC(=O)c2c1c1c3ccccc3[nH]c1c1oc3ccc(F)cc3c21 | 34 |
| CN1CCN(CCCOC(=O)c2c3c(n4ccccc24)C(=O)c2ncccc2C3=O)CC1 | -45.9 |
| Cc1cc2oc(=O)cc(CP(=O)(O)O)c2cc1O | 88.9 |
| O=C(Cn1nnc([N+](=O)[O-])n1)c1ccccc1 | 80.9 |

---

System: OVCAR-3 ovarian
Assay: NCI-60 one-dose screen, 48 h (100 = growth as untreated, 0 = no growth, -100 = all killed)
Settings: 10 µM unless noted
About 83,000 compounds went through this panel and 20% of them were active in at least one assay; those are over-represented in the sample as a whole.
ENDPOINT_NAME: growth (%)

| COMPOUND | UOM | VALUE_REPORTED |
| --- | --- | --- |
| Clc1nn2c(Cn3cnc4c(NCc5ccccc5)ncnc43)nnc2c2ccccc12 | % | 45.8 |
| C=CC(C)(O)CC/C=C(\CO)C(=O)OC1C(C)OC(O[C@](C)(C=C)CC/C=C(\CO)C(=O)O[C@H]2C[C@@]3(C(=O)OC4OC(CO)C(O)C(O)C4OC4OC(C)C(OC5OC(CO)C(O)C5O)C(OC5OC(CO)C(O)C(O)C5O)C4O)C(CC2(C)C)C2=CCC4[C@@]5(C)CC[C@H](OC6OC(COC7OC(C)C(O)C(O)C7OC7OCC(O)C(O)C7O)C(O)C(O)C6NC(C)=O)C(C)(C)C5CC[C@@]4(C)[C@]2(C)C[C@H]3O)C(O)C1O (some centres not stated) | % | -94 |
| COc1ccc2nc(SCC(=O)Nc3ccccc3C)[nH]c2c1 | % | 107 |
| CC1(C)C2CC=C(/C=N/NC(=O)C3CCC(=O)N3)C1C2 (configuration not stated) | % | 112 |
| O=C(Nc1cccnc1Nc1ccc(Cl)cc1)c1cn(Cc2ccc(F)cc2)nn1 | % | 107 |
| C/C(C=O)=C\c1ccc2c(c1)OCO2 | % | 132 |
| COc1ccc2[nH]cc(-c3nc(-c4cn(C)c5ccncc45)cs3)c2c1 | % | 117 |
